biological target: wild-type un-phosphorylated FGFR4 (Homo sapiens, UniProt P22455); test: FGFR Enzymatic Assay (FRET peptide phosphorylation), FGFR4
Sequence (P22455 22-802): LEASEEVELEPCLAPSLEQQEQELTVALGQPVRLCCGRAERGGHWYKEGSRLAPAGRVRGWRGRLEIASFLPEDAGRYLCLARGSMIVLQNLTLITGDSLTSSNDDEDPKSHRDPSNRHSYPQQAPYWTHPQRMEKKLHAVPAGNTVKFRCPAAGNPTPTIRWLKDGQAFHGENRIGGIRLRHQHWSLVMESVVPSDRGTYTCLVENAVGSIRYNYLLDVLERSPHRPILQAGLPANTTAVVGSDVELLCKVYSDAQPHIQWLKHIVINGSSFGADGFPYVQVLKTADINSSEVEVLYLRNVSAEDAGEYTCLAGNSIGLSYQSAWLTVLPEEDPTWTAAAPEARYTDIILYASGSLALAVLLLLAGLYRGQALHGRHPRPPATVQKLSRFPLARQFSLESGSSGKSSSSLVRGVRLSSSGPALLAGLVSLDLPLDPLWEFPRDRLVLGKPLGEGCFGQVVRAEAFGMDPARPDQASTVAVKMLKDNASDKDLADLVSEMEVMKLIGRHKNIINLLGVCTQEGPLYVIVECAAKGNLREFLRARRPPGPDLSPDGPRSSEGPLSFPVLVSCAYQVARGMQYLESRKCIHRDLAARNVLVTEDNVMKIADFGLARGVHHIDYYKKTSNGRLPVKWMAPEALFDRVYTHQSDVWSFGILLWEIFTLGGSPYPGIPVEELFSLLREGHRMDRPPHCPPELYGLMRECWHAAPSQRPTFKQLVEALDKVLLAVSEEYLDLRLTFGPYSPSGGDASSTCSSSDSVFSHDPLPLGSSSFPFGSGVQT
Measurement Label: IC50

- Molecule: "COCCOc1ccc(-c2n[nH]c3cc(OC)c(-c4cccc5c4CC(O)C5)nc23)cn1 (stereo not shown)"
  Test System: "wild-type un-phosphorylated FGFR4 (Homo sapiens, UniProt P22455)"
  Observed: "> 100 nM"

Data request: What IC50 appears in the records for this molecule with wild-type un-phosphorylated FGFR4 (Homo sapiens, UniProt P22455)? COc1cc2[nH]nc(-c3cnn(C)c3)c2nc1-c1cccc2c1CC(F)C2 (stereo not shown)
Data returned: > 100 nM

Data request: Also "COc1cc2[nH]nc(-c3ccc(N4CCOCC4)nc3)c2nc1-c1cccc(CC#N)c1C" ?
Data returned: > 100 nM

Data request: Also COc1cc2[nH]nc(-c3ccc(C4CC4)nc3)c2nc1-c1cccc2c1CC(O)C2 (stereo not shown) ?
Data returned: > 100 nM

Data request: Also COc1cc2[nH]nc(-c3cnn(C4CCN(C(C)=O)CC4)c3)c2nc1-c1cccc2c1CCC2C#N (stereo not shown) ?
Data returned: 40 to 100 nM

Data request: Also "COc1cc2[nH]nc(-c3cnn(C4CN(C(=O)[C@H]5CCN5C)C4)c3)c2nc1-c1cccc2c1CCC2" ?
Data returned: 40 to 100 nM

====

molecular target: wild-type un-phosphorylated FGFR1 (Homo sapiens, UniProt P11362); test: FGFR Enzymatic Assay (FRET peptide phosphorylation), FGFR1; details: FGFR1, wild-type un-phosphorylated FGFR1; pre-incubated for 4 hours
Sequence (P11362 22-822): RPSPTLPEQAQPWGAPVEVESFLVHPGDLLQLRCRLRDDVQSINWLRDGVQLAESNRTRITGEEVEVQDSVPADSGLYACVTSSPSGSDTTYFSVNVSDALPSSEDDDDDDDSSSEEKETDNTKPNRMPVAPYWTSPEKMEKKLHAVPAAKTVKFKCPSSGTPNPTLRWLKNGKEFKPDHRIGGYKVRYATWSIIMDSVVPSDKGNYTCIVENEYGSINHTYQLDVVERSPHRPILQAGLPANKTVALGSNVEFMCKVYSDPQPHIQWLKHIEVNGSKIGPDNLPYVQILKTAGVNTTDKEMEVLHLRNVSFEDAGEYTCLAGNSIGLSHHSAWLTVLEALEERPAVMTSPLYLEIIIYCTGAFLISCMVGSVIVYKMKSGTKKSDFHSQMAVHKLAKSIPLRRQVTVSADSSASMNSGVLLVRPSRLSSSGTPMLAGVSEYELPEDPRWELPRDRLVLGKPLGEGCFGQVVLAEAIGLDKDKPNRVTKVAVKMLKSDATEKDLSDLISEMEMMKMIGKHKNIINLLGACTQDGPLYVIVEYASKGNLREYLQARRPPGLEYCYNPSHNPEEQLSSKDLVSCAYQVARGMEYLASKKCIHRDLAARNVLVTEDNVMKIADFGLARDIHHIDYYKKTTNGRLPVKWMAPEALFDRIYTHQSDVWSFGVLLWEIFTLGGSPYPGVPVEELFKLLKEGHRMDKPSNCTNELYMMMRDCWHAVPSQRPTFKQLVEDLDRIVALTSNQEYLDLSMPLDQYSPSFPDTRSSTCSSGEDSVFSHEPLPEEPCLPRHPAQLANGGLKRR
pIC50: −log10 of the molar value.
Measured pIC50 by item

Look over these answered cases.
- Molecule: "COC(=O)N1CCC(n2cc(-c3n[nH]c4cc(OC)c(-c5cccc6c5CCC6)nc34)cn2)CC1 [Example 20]"
  pIC50: "7.00 to 7.40"
- Molecule: "COC(=O)N1CC(n2cc(-c3n[nH]c4cc(OC)c(-c5cccc6c5CCC6)nc34)cn2)C1 [Example 21]"
  pIC50: "7.00 to 7.40"
- Molecule: "COc1cc2[nH]nc(-c3ccc(N4CCN(C(C)=O)CC4)nc3)c2nc1-c1cccc(C)c1C [Example 43]"
  pIC50: "< 7.00"
- Molecule: "COc1cc2[nH]nc(-c3cnn(CCO)c3)c2nc1-c1cccc2c1CCC2 [Example 31]"
  pIC50: "7.00 to 7.40"
- Molecule: "COc1cc2[nH]nc(-c3cnn(C4CN(S(=O)(=O)CCO)C4)c3)c2nc1-c1cccc2c1CCC2 [Example 150]"
  pIC50: "7.00 to 7.40"
- Molecule: "COc1cc2[nH]nc(-c3cnn(C4CN(C(=O)N(C)C)C4)c3)c2nc1-c1cccc(C)c1F [Example 52]"
  pIC50: "< 7.00"
- Molecule: "COc1cc2[nH]nc(-c3ccc(C4CC4)nc3)c2nc1-c1cccc2c1CC(O)C2 (stereo not shown) [Example 97]"
  pIC50: "7.00 to 7.40"
- Molecule: "COc1cc2[nH]nc(-c3ccc(N4CCN5C[C@H](O)C[C@H]5C4)nc3)c2nc1-c1ccccc1C1CC1 [Example 92]"
  pIC50: "< 7.00"
- Molecule: "Cc1cccc(-c2nc3c(-c4cnn(C)c4)n[nH]c3cc2CO)c1C [Example 38]"
  pIC50: "< 7.00"
- Molecule: "COc1cc2[nH]nc(-c3ccc(N4CCOCC4)nc3)c2nc1-c1cccc2c1CCC2 [Example 58]"
  pIC50: "7.00 to 7.40"

Data request: // pIC50 lookup, key: [2H]C1(n2cc(-c3n[nH]c4cc(OC)c(-c5cccc6c5CCC6C#N)nc34)cn2)CCN(C(=O)C2CCOCC2)CC1 (stereo not shown) [Example 167]
Data returned: 7.00 to 7.40

Data request: Also Cn1cc(-c2n[nH]c3cc(Cl)c(-c4cccc5c4CC(O)C5)nc23)cn1 (single isomer, unassigned) [Example 39] ?
Data returned: 7.00 to 7.40

Data request: Also COc1cc2[nH]nc(-c3ccc(N4CCN(C(C)=O)CC4)nc3)c2nc1-c1cccc(CC#N)c1C [Example 55] ?
Data returned: < 7.00

Data request: Also COc1cc2[nH]nc(-c3ccc(CN4CC5CC4CO5)nc3)c2nc1-c1cccc2c1CCC2 (stereo not shown) [Example 161] ?
Data returned: 7.00 to 7.40

Data request: Also COc1cc2[nH]nc(-c3cnn(C)c3)c2nc1-c1cccc(C)c1C [Example 1] ?
Data returned: < 7.00

Data request: Also COc1cc2[nH]nc(-c3ccc(N4CCN(C(C)=O)CC4)cc3)c2nc1-c1cccc2c1CCC2 [Example 61] ?
Data returned: 7.00 to 7.40

Cited source: patent US12083124B2
